B1: OR3A1 (parent)
chain: PMYFFLGNLSVLDVGCISVTVPSM

# Variants of: B1
# ASSAY_COMMENT: protein stability index of a GFP-peptide fusion (GPS, HEK-293T) (PSI 1-6); higher = more stable;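 also: lentivirally expressed fusions sorted by FACS into six bins by GFP to DsRed ratio, PSI derived from sequencing read proportions per bin multiplied by bin number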
# EXPERIMENTAL_CONTEXT: c terminus: a fixed tail appended
Give measured protein stability index for each item. Keep answers brief.
Lab note: write the figure by itself, no unit.

Value of protein stability index reported for the variant PMYTFLGNLSVLDVGCISVTVPSM [F4T] is 1.26

Per the records, this variant ( PMYFFLGNLSILDVGCISVTVPSM [V11I] ) has protein stability index equal to 3.56

Data point: PMYFFLGNLSVLDVGEISVTVPSM [C16E] ; protein stability index = 2.33

The variant listed as PMYFFLGNLSVLDVGCISVQVPSM [T20Q] has a reported protein stability index of 3.11

Per the records, this variant ( PMYFFLGNLSVLDVGCISVTVLSM [P22L] ) has protein stability index equal to 2.95

The variant listed as PMYFFLGNLWVLDVGCISVTVPSM [S10W] shows protein stability index equal to 3.31

variant PMYFFLGNDSVLDVGCISVTVPSM [L9D] , protein stability index observed: 2

Notebook: PMYFFLGNLSVLDVKCISVTVPSM [G15K] , protein stability index read as 2.02

Reported protein stability index ( PMYFFLGNLSVLDVGCIWVTVPSM [S18W] ) = 2.37

Consider PMYFFLGNLSVLDCGCISVTVPSM [V14C] . Its measured protein stability index is 1.99

For record PMYFFLGNLSVLDVDCISVTVPSM [G15D] the listed protein stability index is 3.7

Item: PMYFFLGNLSVLDVGCIPVTVPSM [S18P] | protein stability index: 2.5

// sample PMYFFLGNLSVLDVGCISKTVPSM [V19K] , its protein stability index was 3.29

Form field protein stability index, entry PMYFFLGNLSVLDLGCISVTVPSM [V14L] : 4.23

protein stability index reported for this variant PMYFFLGNLSVLDVGCISYTVPSM [V19Y] : 2.93

Lab note: measured protein stability index of PMYFFLGNLSVLDVGCISVTVPYM [S23Y] was 4.04

Note to self: protein stability index recorded for PMYFFLGNLSVLDVGCESVTVPSM [I17E] was 2.17

// protein stability index value for PMYFFLGNLSVLDVGCKSVTVPSM [I17K] : 2.97

// protein stability index value for PMYFFLGNLSVLDVGCWSVTVPSM [I17W] : 3.68

Entry PMHFFLGNLSVLDVGCISVTVPSM [Y3H] ; protein stability index = 3.35

Briefly, protein stability index measured for PMMFFLGNLSVLDVGCISVTVPSM [Y3M] : 2.3

The value of protein stability index measured for the variant PMYFVLGNLSVLDVGCISVTVPSM [F5V] turned out to be 2.3

# protein stability index of PMYFFLGNLSVLIVGCISVTVPSM [D13I] = 3.37

Please fill in: protein stability index reported for PMYFFLGNLSVLDDGCISVTVPSM [V14D] = 1.96

protein stability index in this record for PMYFFLGNLSVLDVCCISVTVPSM [G15C] : 2.71

Note to self: protein stability index recorded for PMYFFLGNLSVLDVGCIKVTVPSM [S18K] was 2.67

For this variant ( PMYFFLGNLSVLDVGCISVTVPAM [S23A] ), measured protein stability index is 3.86

Given item PMYFFLGNLSVLDVMCISVTVPSM [G15M] , the value recorded as its protein stability index is 3.18

Per the records, this variant ( PMYFFLGNLSVLDGGCISVTVPSM [V14G] ) has protein stability index equal to 3.25

Reported protein stability index ( PMYFFLGNLSVLDVGCIHVTVPSM [S18H] ) = 3.06

Lab book: protein stability index of PMYFFLGNLSVLDVGCYSVTVPSM [I17Y] noted as 1.63

PMYFFLGNLSVLDVGCISVTVVSM [P22V] has a reported protein stability index of 2.1

Briefly, protein stability index measured for PMYFELGNLSVLDVGCISVTVPSM [F5E] : 1.46

Form field protein stability index, entry PMYFFLGNLSVLDVGCISVPVPSM [T20P] : 1.39

Lab note: measured protein stability index of PMYFFLGNLSVLKVGCISVTVPSM [D13K] was 2.74

Record summary for PMYFFLGNLSVLDVGCISVTNPSM [V21N] : reported protein stability index = 3.36

Quick note, protein stability index for PMYFFLGNLSVHDVGCISVTVPSM [L12H] landed at 2.78

For PMYFFAGNLSVLDVGCISVTVPSM [L6A] the variant record lists protein stability index as 2.24

Lab book: protein stability index of SMYFFLGNLSVLDVGCISVTVPSM [P1S] noted as 2.89

For PMYFFQGNLSVLDVGCISVTVPSM [L6Q] the variant record lists protein stability index as 2.67

Just so you know, measured protein stability index for PMYFFLGNLSVLDVRCISVTVPSM [G15R] came out at 3.7

Sample PMYFFLGNLSVLDNGCISVTVPSM [V14N] ; protein stability index observed: 3.31

The recorded protein stability index for entry PMFFFLGNLSVLDVGCISVTVPSM [Y3F] equals 2.74

PMYFFLGNLSVLDVGKISVTVPSM [C16K] yielded protein stability index of 2.14

Lookup result for PMYFFLGNLSVLDVGCISVTPPSM [V21P] ; measured protein stability index: 2.96

variant PMYFFLGNLSVLDVGCISVTVCSM [P22C] , protein stability index observed: 2.72

Entry PMYFFLGNLSVLDVGCISVLVPSM [T20L] ; protein stability index = 2.99

The variant PMYFFLGNLSVLDVNCISVTVPSM [G15N] showed protein stability index equal to 2.63

Please fill in: protein stability index reported for TMYFFLGNLSVLDVGCISVTVPSM [P1T] = 2.16

protein stability index reported for this variant PMYFFLGNLSVLDHGCISVTVPSM [V14H] : 2.23

The reported value for PMYFFLGNLSVLYVGCISVTVPSM [D13Y] in terms of protein stability index is 2.55

PMYFFLGNLSVYDVGCISVTVPSM [L12Y] yielded protein stability index of 3.05

Value of measured protein stability index for the entry PMYFFLQNLSVLDVGCISVTVPSM [G7Q] : 2.31

So, PMYFGLGNLSVLDVGCISVTVPSM [F5G] ? Its protein stability index was 1.83

For PMYFFLGNLSVLDVGCISPTVPSM [V19P] the variant record lists protein stability index as 2.55

Entry PMYFFLGNLSVLDVYCISVTVPSM [G15Y] — recorded protein stability index = 1.93

The recorded protein stability index for PMYFFLGNQSVLDVGCISVTVPSM [L9Q] is 1.96

protein stability index recorded for this variant, PMYFFLGNLSVLDVSCISVTVPSM [G15S] , is 2.12

// protein stability index value for PMYFFLGNLSVLDVGCFSVTVPSM [I17F] : 3.32

# protein stability index of PMYFFLGNLSVLDVGCISTTVPSM [V19T] = 4.48

For record PMYFFLGNLSVLDVGCISVTVQSM [P22Q] the listed protein stability index is 3.27

For record PMYFFLGNLSVLDVPCISVTVPSM [G15P] the listed protein stability index is 2.36

// recorded protein stability index for PMYFFLGNLSVLPVGCISVTVPSM [D13P] : 3.47

The value of protein stability index measured for the variant PMYFFLANLSVLDVGCISVTVPSM [G7A] turned out to be 3.1

The reported protein stability index of the variant PMYDFLGNLSVLDVGCISVTVPSM [F4D] was 2.63

The reported protein stability index of the variant PMYFFPGNLSVLDVGCISVTVPSM [L6P] was 1.62

# protein stability index of PMYFFLGNLSVLDVGCISVTVPFM [S23F] = 1.78

Entry PMYFFLGNLSVLDVGCISVTVESM [P22E] ; protein stability index = 3.69

Consider PMYFFLGFLSVLDVGCISVTVPSM [N8F] . Its measured protein stability index is 2.06

Field protein stability index (entry PMYFFLGNLSVLDVGCISVTVPNM [S23N] ) reads 2.58

Reported protein stability index of PMYFFLGNLSVLDVGCASVTVPSM [I17A] : 3.4

The variant listed as PMYFFLSNLSVLDVGCISVTVPSM [G7S] has a reported protein stability index of 2.72

According to the records, this variant PMYFFLTNLSVLDVGCISVTVPSM [G7T] displays protein stability index of 2.84

Short answer for PMYFFLGNLSVLDVGCISVTVPMM [S23M] : protein stability index was 2.67

Measured protein stability index of PMYFFLGNLFVLDVGCISVTVPSM [S10F] : 3.53

Field protein stability index (entry PMYFFLGNLSVLDVGCISVTVISM [P22I] ) reads 3.76

Field protein stability index (entry PMYFFLGNLSVLDVGCPSVTVPSM [I17P] ) reads 3.39

protein stability index reading for EMYFFLGNLSVLDVGCISVTVPSM [P1E] : 2.01

Quick note, protein stability index for LMYFFLGNLSVLDVGCISVTVPSM [P1L] landed at 4.36

The variant listed as PMYFFLGNLSVLDVGCISVTVPSV [M24V] shows protein stability index equal to 3.3

According to the records, this variant PMYFFLGNLSVLDVGCIQVTVPSM [S18Q] displays protein stability index of 2.54

The variant listed as PMYFFLGNLSVGDVGCISVTVPSM [L12G] shows protein stability index equal to 2.35

Form field protein stability index, entry PMYFFLGNLSVSDVGCISVTVPSM [L12S] : 1.53

PMYKFLGNLSVLDVGCISVTVPSM [F4K] has a reported protein stability index of 1.52

protein stability index measured on PMYFFLGNLSVLDPGCISVTVPSM [V14P] = 4.21

The variant identified as PMYFFLGNLSVLCVGCISVTVPSM [D13C] registered its protein stability index at 4.05

In plain terms, PMYFFLGNLSVLDVGCISVTVPSA [M24A] has a documented protein stability index of 3.27

// NMYFFLGNLSVLDVGCISVTVPSM [P1N] : protein stability index value = 3.87

Recorded protein stability index (variant PMYFFLGNLSVLDVGCISVTVPVM [S23V] ): 4.29

get_value(item= PMYFFLHNLSVLDVGCISVTVPSM [G7H] , readout=protein stability index) returns 1.39

What the record says about PMYMFLGNLSVLDVGCISVTVPSM [F4M] : protein stability index is 4.21
